Source of measurements: patent US20250296995A1

Target: T1, recombinant Plasmodium falciparum circumsporozoite protein (CSP) (Plasmodium falciparum, UniProt Q7K740 21-375)
T1 construct: also called recombinant CSP
T1 sequence (Q7K740 21-375 limits assumed): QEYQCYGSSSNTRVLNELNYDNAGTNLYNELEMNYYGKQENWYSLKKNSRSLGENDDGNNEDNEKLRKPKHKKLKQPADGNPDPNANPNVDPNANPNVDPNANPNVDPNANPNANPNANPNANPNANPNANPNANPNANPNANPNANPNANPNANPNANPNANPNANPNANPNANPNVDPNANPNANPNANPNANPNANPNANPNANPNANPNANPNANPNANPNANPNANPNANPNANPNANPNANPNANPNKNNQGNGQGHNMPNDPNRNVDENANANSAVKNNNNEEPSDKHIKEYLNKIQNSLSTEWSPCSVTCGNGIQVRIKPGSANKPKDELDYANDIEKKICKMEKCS
Assay: SPR, recombinant CSP
# koff listing for each entry below
ASSAY ENDPOINT: koff (s⁻¹)

[[record]]
binder = "AB001396 (antibody, V domains shown) VH: QVQLVESGGGVVQPGRSLRLSCAASGFTFSSYGMHWVRQAPGKGLEWVAIIWYDGSHKYYADSVKGRFTISRDNSKNTLYLQMNSLRAEDTAVYHCARVYQPTYYYDSSRGEAFDIWGQGTMVTVSS VL: DIQMTQSPSTLSASVGDRVTITCRASQSISSWLAWYQQKPGKAPKLLIYKASNLGSGVPSRFSGSGSGTEFTLTISSLQPDDFATYYCQQYNSYWTFGQGTKVEIK"
assay_endpoint = "koff"
unit_of_measure = "s⁻¹"
value_measured = 0.000393

[[record]]
binder = "AB-000338 LS (antibody, V domains shown) VH: QVQLVESGGGVVQPGRSLRLSCAASGFSFSTYGMHWIRQVPGKGLEWVAIIWHDGSKEFYADSVKGRFTISRDNSKKKLYLQMNSLRAEDTAIYYCVKDDFDSSGHSYFHYWGQGTLVTVSS VL: GVVMTQSPLSLPVTLGQPASISCRSSQSLVHSDGNTYVHWFQQRPGQSPRRLIYKVSNRDSGVPDRFSGSGSGTDFTLKISRVEAEDVGVYYCMQGTQWWTFGQGTKVEIK"
assay_endpoint = "koff"
unit_of_measure = "s⁻¹"
value_measured = 0.00147

[[record]]
binder = "AB001578 (antibody, V domains shown) VH: QVQLVESGGGVVQPGRSLRLSCAASGFSFSNYGMHWVRQAPGKGLEWVAIIWYDGSNKYYADSVKGRFTISRDNSKNTLYLQMNSLRAEDTAVYYCARDGTIWDDSRGYILDYWGQGTLVTVSS VL: EIVLTQSPATLSLSPGERATLSCRASQGVSSYLAWYQQKPGQAPRLLIYDASNRATGIPARFSGSGSGTDFTLTISSLEPEDFAVYYCQQRSNWPPTFGPGTKVDIK"
assay_endpoint = "koff"
unit_of_measure = "s⁻¹"
value_measured = 0.000977

[[record]]
binder = "AB-000327 (antibody, V domains shown) VH: QVQLVESGGGVVQPGRSLRLSCAASRFTFKNYGMHWVRQGPGKGLEWVAVIWYDGSQEYYVDSVRGRFTISRDNSKDTLYLQMNSLRAEDTAVYYCVRDGRYRTSHQTSTGFFDLWGQGTLVTVSS VL: QSMLTQPPSVSGAPGQRVTISCTGSSSNIGADYDVHWYQQLPGTAPKLLIYGNNNRPSGVPDRFSGSKSGTSASLAITGLQPEDEAEYYCQSYDSSLSGSFVFGTGTKVTVL"
assay_endpoint = "koff"
unit_of_measure = "s⁻¹"
value_measured = 0.00143

[[record]]
binder = "AB001387 (antibody, V domains shown) VH: QVQLVESGGGVVQPGRSLRLSCAASGFTFSNYGMHWVRQAPGKGLEWVAVIWYDGSNKFYADSVKGRFTSSRDNSKNTLYLQMNSLRAEDTAVYYCARDGRFLTTVTTAYFDYWGQGTLVTVSS VL: QSVLTQPPSVSGAPGQRVTISCTGSSSNIGAGYDVHWYQQLPGTAPKLLIYGNSNRPSGVPDRFSGSKSGTSASLAITGLQAEDEADYYCQSYDSSLSALVFGGGTKLTVL"
assay_endpoint = "koff"
unit_of_measure = "s⁻¹"
value_measured = 0.00111

[[record]]
binder = "AB-000222 (antibody, V domains shown) VH: QVQLVESGGGVVQPGRSLRLSCAASGFTFSNFGMHWVRQAPGKGLEWVAVIWYDGSKKYYADFVKGRFTISRDNSKYMLYLQMTSLGAEDTAIYYCARDIRGAYRVTDGGFDYWGQGALVTVSS VL: QFVLTQPPSVSGAPGQRVTISCTGSSFNIGAGYDVHWYQQLPEKAPKLLIYGSTNRASEVPDRFSGSKSGTSASLAITGLQPEDEADYYCQSYDSSLSGYVFGTGTKVTVL"
assay_endpoint = "koff"
unit_of_measure = "s⁻¹"
value_measured = 0.00118

[[record]]
binder = "AB-000231 (antibody, V domains shown) VH: QVHLVESGGGVVQPGRSLRLSCAASGFTFRNYGIHWVRQAPGKGLEWVAVIWYDGSREFYADSVEGRFTVSRDNSKNTVFLQMNSLRVDDTAVYYCARAGYSDTSGYGDHWGQGTLVSVSS VL: QSVLTQPPSVSGAPGQRVTISCTGGSSNIGAGYDVHWYQQLPGTAPKLLISHNNNRPSGVPDRFSGSKSGTSASLVIAGLQAEDEADYYCQSYDRRLSSSWVFGGGTRLTVLS"
assay_endpoint = "koff"
unit_of_measure = "s⁻¹"
value_measured = 0.00142

[[record]]
binder = "AB-000394 (antibody, V domains shown) VH: QAQPVESGGGVVQPGKSLRLSCAASGFTFRNFGMHWVRQAPGKGLEWVAVIWHDGSNQFYADSVEGRFTISRDNSKNTLYLQMDSLRVEDTAMYYCARDRGYSGSWGYFDHWGQGTLVTVSS VL: EIVLTQSPATLSLSPGERATLSCRASQSISDYLAWYQQKPGQAPRLLIYDASFRATGIPARFSGSGSGTDFTLTISSLEPEDFAVYYCQQRSIGFTFGPGTKVDIK"
assay_endpoint = "koff"
unit_of_measure = "s⁻¹"
value_measured = 0.00156

